system-name: Alpha-bungarotoxin (Bungarus multicinctus)
assay-details: alpha-bungarotoxin binders on microarray, profiling panel, artefact control for SMM control protein annotation, biochemical, small-molecule microarray, Alexa647 label, 635/667 nm fluorescence (AID 1117)
condition: alpha-BTX-A647 binding fluorescence, higher = more signal
Rule: met for composite z-score not less than 0.05, not met for anything less.

molecule	category
CCCC[C@@H](O)C1=C(COC)Cn2c(=O)n(-c3ccccc3)c(=O)n2[C@H]1CO	not met
COC(=O)C1=CC(CCCO)=CC(c2ccc(CN3CCCC3)cc2)N(Cc2sc3ccccc3c2Cl)C=C1C(=O)OC (configuration not stated)	met

Query :: Is reported composite z-score greater than or equal to 0.05 here: CCOC(=O)C1=C[C@@H](C(C)(C)C)N(S(=O)(=O)c2ccc(C)cc2)[C@H]1c1ccccc1Cl
Result :: met

Query :: Is reported composite z-score greater than or equal to 0.05 here: COc1ccc([Si](C)(C)[C@H]2[C@H](CCO)O[C@@]3(C(=O)N(Cc4ccc(N5CCOC5=O)cc4)c4ccccc43)[C@@H]2C)cc1
Result :: met

Query :: Is reported composite z-score greater than or equal to 0.05 here: COc1ccc([Si](C)(C)[C@H]2[C@H](CC(=O)N3Cc4ccccc4C[C@H]3CO)O[C@@]3(C(=O)N(Cc4cccc(N5C(=O)c6cccc7cccc5c67)c4)c4ccccc43)[C@@H]2C)cc1
Result :: met

Query :: Is reported composite z-score greater than or equal to 0.05 here: CCOC(=O)C1=CC[C@@H](c2ccccc2)N(S(=O)(=O)c2ccc(C)cc2)[C@H]1C#N
Result :: not met

----------
assay-details: basal S. cerevisiae growth modulation, no modifier, primary screen, OD600, strain BY4716, 24 h, basal condition (AID 1173)
condition: OD600, 24 h, higher = more signal, called active from +8 up or from −8 down
Rule: y for z-score not less than 0.6, n for anything less.

Study these solved cases before continuing.
compound	category
C=CCC(OC(C)=O)[C@@H]1[C@@H](N(Cc2ccc(-c3cccc(C(F)(F)F)c3)o2)C(=O)c2cccc3ccccc23)c2cc(OCCCO)ccc2N1C(=O)c1ccc2ccccc2n1 (stereo partly specified)	n
COCCOC(=O)N1C(=O)[C@@]2(c3cc(C#Cc4ccc(OC)cc4)ccc31)[C@H](C(=O)N1CCCCCCC1)[C@H]1C(=O)O[C@H](c3ccccc3)[C@H](c3ccccc3)N1[C@@H]2c1ccccc1OCCO	y
CC(C)CNC(=O)[C@@H]1c2ccccc2C(=O)N(Cc2ccccc2Cl)[C@H]1c1ccc(CO)cc1	n
COc1ccc([Si](C)(C)[C@H]2[C@H](CCO)O[C@@]3(C(=O)N(Cc4ccc(N5CCOC5=O)cc4)c4ccccc43)[C@@H]2C)cc1	y

Now consider a different compound.
Query :: Is reported z-score greater than or equal to 0.6 here: C=C(CCCC)/C(=C/C[C@H](OC(C)=O)c1cccc(OCCO)c1)c1cc(C(=O)OC)ccc1OC
Result :: n

----------
assay-details: CREB reporter modulators under forskolin, primary screen, cell-based, PC12, CRE-LacZ reporter, forskolin-stimulated (AID 1146);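 also: PC12 cells with 6xCRE LacZ reporter stimulated by forskolin 10 µM; beta-galactosidase reporter signal reflecting CREB driven transcription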
condition: luminescence, 4.5 h, higher = more signal, called active from +8 up or from −8 down
The source made the active and inactive calls.
assay-endpoint: z-score

Observe how each entry below is paired with its result.
molecule	assay-endpoint	test-value
CN(C)CCCNC(=O)[C@@]1(Cc2ccccc2I)c2ccccc2C(=O)N(Cc2ccccc2)[C@H]1c1ccc(CO)cc1	z-score	2.56 (inactive)
COc1ccc(NN2C(C(O)c3ccc(OC)cc3)C=CC3C(=O)N(C4CCCCC4)C(=O)C32)cc1 (centres undefined)	z-score	-0.211 (inactive)
COC(=O)[C@]1(CO)N=C(c2ccc(OCCCO)cc2)O[C@@H]1c1ccccc1CN=[N+]=[N-]	z-score	0.224 (inactive)

Query :: What z-score value was documented for this molecule, COCCOC(=O)N1C(=O)[C@@]2(c3ccccc31)[C@H](C(N)=O)[C@H]1C(=O)O[C@H](c3ccccc3)[C@H](c3ccccc3)N1[C@@H]2c1ccc(OCCO)cc1 ?
Result :: -1.15 (inactive)

Query :: What z-score value was documented for this molecule, COCCOC(=O)N1C(=O)[C@@]2(c3cc(C#CC4(O)CCCCCC4)ccc31)[C@H](C(=O)NC[C@H](O)c1ccccc1)[C@H]1C(=O)O[C@H](c3ccccc3)[C@H](c3ccccc3)N1[C@@H]2c1ccc(O)cc1 ?
Result :: 0.0418 (inactive)

Query :: What z-score value was documented for this molecule, COc1ccc(C(O)C2C=CC3C(=O)N(C)C(=O)C3N2Nc2ccc([N+](=O)[O-])cc2[N+](=O)[O-])cc1OCc1ccccc1 (centres undefined) ?
Result :: 0.706 (inactive)

Query :: What z-score value was documented for this molecule, COCCOC(=O)N1C(=O)[C@@]2(c3cc(C#Cc4ccc(OC)cc4)ccc31)[C@H](C(=O)N1CCCCCCC1)[C@H]1C(=O)O[C@H](c3ccccc3)[C@H](c3ccccc3)N1[C@@H]2c1ccccc1OCCO ?
Result :: 0.323 (inactive)

Query :: What z-score value was documented for this molecule, [N-]=[N+]=NCc1ccccc1C[C@]1(C(=O)N2CCCCC2)N=C(c2ccc(OCCCO)cc2)O[C@H]1c1ccccc1 ?
Result :: -0.964 (inactive)

Query :: What z-score value was documented for this molecule, COC(=O)[C@@]1(Cc2ccc(OC)cc2)[C@H]2c3cc(C(=O)N(C)C)n(Cc4ccsc4Br)c3C[C@H]2CN1C(=O)c1ccccc1 ?
Result :: 0.217 (inactive)

Query :: What z-score value was documented for this molecule, COC(=O)[C@@]1(CCS(=O)(=O)c2ccccc2)N=C(c2ccc(OCCCO)cc2)O[C@H]1c1ccccc1N=[N+]=[N-] ?
Result :: -0.112 (inactive)

Query :: What z-score value was documented for this molecule, CCCCC(O)C1C=CC2C(=O)NC(=O)C2N1Nc1ccc(Cl)cc1Cl (centres undefined) ?
Result :: -0.123 (inactive)

Query :: What z-score value was documented for this molecule, CC1(C)OC[C@@]23C=C(Br)[C@@H](C[C@H]12)[C@@]1(CO1)C3=O ?
Result :: 0.925 (inactive)

Query :: What z-score value was documented for this molecule, COCCOC(=O)N1C(=O)[C@@]2(c3cc(C#CC4=CCCCC4)ccc31)[C@H](C(=O)N1CCN(c3ncccn3)CC1)[C@H]1C(=O)O[C@H](c3ccccc3)[C@H](c3ccccc3)N1[C@@H]2c1ccccc1OCCO ?
Result :: -1.32 (inactive)

Query :: What z-score value was documented for this molecule, CC(C)C(=C=CC[C@@H](O)c1cccc(OCCO)c1)CCO ?
Result :: -0.755 (inactive)

----------
compounds and their reported composite z-score
Test system: Inhibin beta A chain (activin A)
assay-details: INHBA (activin A) binders on microarrays, primary screen, biochemical, small-molecule microarray, 635 nm fluorescence scan (AID 1107);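 also: mouse activin A protein probed at 4.33 µg/mL on printed slides; score merges bound-protein fluorescence near 667 nm with spot signal-to-noise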
condition: small-molecule microarray binding, higher = more signal
Could you keep your reply to the number by itself?

> print(dat)
                              line.notation  test.value
1  CCOC(=O)C1=C[C@@H](C(C)(C)C)N(S(=O)(=O)c2ccc(C)cc2)[C@H]1c1ccccc1Cl      0.0829
2  NCCCC[C@@H]1NC(=O)[C@H]2C[C@@H](C(=O)NCc3ccc(F)cc3)[C@@H](c3ccc(O)cc3)N2C1=O         1.2
3  CCCC[C@H]1OB(O)C[C@H]2C1=C(COC)C[C@H]1C(=O)C=CC(=O)[C@H]12        1.21

Lab note: next compound to report on.
Query :: What composite z-score value was documented for this compound, C=C(COC)/C(=C/C[C@H](OC(=O)c1ccncc1)c1cccc(OCCO)c1)c1cnc2ccccc2c1 ?
Result :: 1.2

----------
compounds and their reported z-score
assay-details: basal MM1S mitochondrial membrane potential changes, profiling panel, cell-based, JC-1 fluorescence, 24 h, 100 nL compound (AID 1170); also: test concentration not given here
condition: higher = more signal
Could you keep your reply to the number by itself?

compound	test-value
CCCCCCc1nc(-c2ccc(OC)nc2)cc2c1[Si](C(C)C)(C(C)C)OC2	-0.368
C=CC[C@]1(C(=O)N(C)C)COC(c2ccc(OCCCO)cc2)=N1	1.23
NC(=O)NCC#Cc1ccc2c(c1)[C@]1(C(=O)N2)[C@H](C(=O)Nc2nc3ccccc3s2)[C@H]2C(=O)O[C@H](c3ccccc3)[C@H](c3ccccc3)N2[C@@H]1c1ccc(OCCO)cc1	-1.88

Query :: What z-score value was documented for this compound, COCCOC(=O)N1C(=O)[C@@]2(c3cc(C#CCCO)ccc31)[C@H](C(=O)N1CCc3cc(OC)c(OC)cc3C1)[C@H]1C(=O)O[C@H](c3ccccc3)[C@H](c3ccccc3)N1[C@@H]2c1ccccc1OCCO ?
Result :: -1.23

Query :: What z-score value was documented for this compound, COc1ccc(CCNC(=O)[C@@]2(Sc3ccc(C)cc3)CC(=O)N(C(C)C)[C@@H]2c2ccc(CO)cc2)cc1 ?
Result :: 0.277
